IC50 values by entry
- Test system: Plasmodium falciparum
- protocol: Antimalarial activity against chloroquine-sensitive Plasmodium falciparum D10
- Type: functional, organism-based

INSERT INTO assay_data (line_notation, recorded_result) VALUES
  ('O=C(CN(CCCNc1ccnc2cc(Cl)ccc12)C(=O)c1ccncc1)NC1CCCCC1', '0.23 µM'),
  ('O=C(CN(CCNc1ccnc2cc(Cl)ccc12)C(=O)c1ccncc1)NC1CCCCC1', '0.54 µM');

query: In one line, give reported IC50 of the entry `O=C(CN(CCNc1ccnc2cc(Cl)ccc12)C(=O)c1cnccn1)NC1CCCCC1` .
result: 0.79 µM

query: Give the measured IC50 for `CC(C)(C)NC(=O)CN(CCCNc1ccnc2cc(Cl)ccc12)C(=O)c1ccncc1`
result: > 20 µM
